target: Casein kinase II subunit alpha' (Homo sapiens, UniProt P19784); experiment: Competitive inhibition of GST fused human CK2alpha' expressed in Escherichia coli BL21 after 10 mins in presence of ATP
experimental.endpoint: pIC50
Numbers only, as −log10 of the molar value.

-- ask Return reported pIC50; argument: COc1ccc(C(=O)Nc2ncc(-c3ccc(C(=O)O)cc3)s2)cc1
-- reply 7.34
